# systemName: P. aeruginosa AmiC (Pseudomonas aeruginosa)
# Sequence (P27017 whole entry): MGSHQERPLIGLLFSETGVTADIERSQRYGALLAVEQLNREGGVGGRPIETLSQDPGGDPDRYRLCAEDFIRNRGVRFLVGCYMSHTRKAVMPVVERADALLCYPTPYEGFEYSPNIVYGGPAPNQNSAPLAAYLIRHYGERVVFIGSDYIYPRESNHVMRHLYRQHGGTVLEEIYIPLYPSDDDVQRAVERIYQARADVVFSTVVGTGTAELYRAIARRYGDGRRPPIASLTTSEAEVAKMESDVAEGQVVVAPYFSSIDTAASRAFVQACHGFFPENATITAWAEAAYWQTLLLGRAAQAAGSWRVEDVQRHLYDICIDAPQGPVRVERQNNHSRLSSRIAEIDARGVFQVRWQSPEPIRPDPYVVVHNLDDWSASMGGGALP
# protocolSummary: Microscale thermophoresis binding to recombinant AmiC
readoutKind: pKd
Please keep in mind that pKd is minus log10 of the molar concentration; only the number is needed.

Kindly note the recorded pKd for O=C1Nc2ccccc2C1=O , which is 3.22
